System: Cyclin-dependent kinase 4 (Homo sapiens, UniProt P11802) | Read-out: IC50 | Origin: multiple publications

CCN(CC)c1ccc(Nc2ncc(-c3cccc(OC4CCCC4)c3)o2)cn1 ... < 1000 nM
CCN1CCN(Cc2ccc(Nc3ncc(F)c(-c4ncc5nc(C)n(C(C)C)c5n4)n3)nc2)CC1 ... 20 to 100 nM
COc1cccc(-c2cnc(Nc3ccc(-n4ccnc4)nc3)o2)c1 ... < 10000 nM
CCN(CC)CCNC(=O)c1ccc(Nc2ncc(-c3cccc(OC4CCCC4)c3)o2)cc1 ... < 100 nM
CC(C)(CN)CNc1ncccc1-c1ccnc(Nc2cccc(Cl)c2)n1 ... < 5000 nM

Prompt: Request body: readout IC50, system Cyclin-dependent kinase 4 (Homo sapiens, UniProt P11802), query Cc1cn(-c2ccccc2)c2nc(Nc3ccc(N4CCNCC4)cc3)ncc12 . Return the value.
Completion: < 10000 nM

Prompt: Request body: readout IC50, system Cyclin-dependent kinase 4 (Homo sapiens, UniProt P11802), query NCCCNc1ncccc1-c1ccnc(Nc2cccc(Cl)c2)n1 . Return the value.
Completion: < 5000 nM

Prompt: Request body: readout IC50, system Cyclin-dependent kinase 4 (Homo sapiens, UniProt P11802), query COc1cccc(-c2cnc(Nc3ccc(N4CCCCC4)nc3)o2)c1 . Return the value.
Completion: < 10000 nM

Prompt: Request body: readout IC50, system Cyclin-dependent kinase 4 (Homo sapiens, UniProt P11802), query CN1CCN(c2ccc(Nc3ncc(-c4cccc(OC5CCCC5)c4)o3)cc2F)CC1 . Return the value.
Completion: < 100 nM

====

pIC50: −log10 of the molar value.
System: Cyclin-dependent kinase 4 (Homo sapiens, UniProt P11802) | Read-out: pIC50 | Origin: multiple publications

Prompt: Request body: readout pIC50, system Cyclin-dependent kinase 4 (Homo sapiens, UniProt P11802), query CC(=O)NCCCNc1ncccc1-c1ccnc(Nc2cccc(Cl)c2)n1 . Return the value.
Completion: 4.30 to 4.82

Prompt: Request body: readout pIC50, system Cyclin-dependent kinase 4 (Homo sapiens, UniProt P11802), query CCN1CCN(Cc2ccc(Nc3ncc(F)c(-c4ccc5c(c(C)nn5C5CCCC5)c4F)n3)nc2)CC1 . Return the value.
Completion: 7.00 to 7.70

Prompt: Request body: readout pIC50, system Cyclin-dependent kinase 4 (Homo sapiens, UniProt P11802), query CC(C)n1nc(C#N)c2c1-c1nc(Nc3ccc(N4CCNCC4)cn3)ncc1CC2 . Return the value.
Completion: 8.22

====

System: Cyclin-dependent kinase 4 (Homo sapiens) | Read-out: IC50 | Origin: multiple publications

Worked cases, IC50 given:
O=C1C(C(F)(F)F)Oc2cnc(Nc3ccc(N4CCNCC4)cn3)nc2N1C1CCCC1 (centres unmarked) ... ≤ 20 nM
CCC(CC)n1c(COC)cc2cnc(Nc3ccc(C(=O)NC4CCCC4)cc3)nc21 ... < 10000 nM
CC(C)N1CCOc2c(F)cc(-c3nc(Nc4cc(N5CCCNCC5)ccn4)ncc3F)cc21 ... > 200 nM

Prompt: Request body: readout IC50, system Cyclin-dependent kinase 4 (Homo sapiens), query Cc1cc(Nc2ncc(-c3cccc(OC4CCCC4)c3)o2)ccc1N1CCN(C)CC1 . Return the value.
Completion: < 100 nM

Prompt: Request body: readout IC50, system Cyclin-dependent kinase 4 (Homo sapiens), query Cc1cn(C2CCCC2)c2nc(Nc3ccc(-n4ccnc4)cc3)ncc12 . Return the value.
Completion: < 10000 nM

Prompt: Request body: readout IC50, system Cyclin-dependent kinase 4 (Homo sapiens), query CCC(CC)n1c(C(=O)Nc2ccc(C(C)(C)C)cc2)cc2cnc(Nc3ccc(N4CCNCC4)cc3)nc21 . Return the value.
Completion: < 10000 nM

Prompt: Request body: readout IC50, system Cyclin-dependent kinase 4 (Homo sapiens), query CN1CCN(c2ccc(Nc3ncc(-c4cccc(O)c4)o3)cc2)CC1 . Return the value.
Completion: < 100 nM

Prompt: Request body: readout IC50, system Cyclin-dependent kinase 4 (Homo sapiens), query CC(C)N1CCOc2c(F)cc(-c3nc(Nc4ccc(C5CCN(C)CC5)c(C#N)n4)ncc3F)cc21 . Return the value.
Completion: 23 nM

Prompt: Request body: readout IC50, system Cyclin-dependent kinase 4 (Homo sapiens), query COc1ncccc1-c1ccnc(Nc2ccc(N3CCN(C)CC3)cc2)n1 . Return the value.
Completion: < 5000 nM

Prompt: Request body: readout IC50, system Cyclin-dependent kinase 4 (Homo sapiens), query Cc1nc2c(n1C1CCCC1)-c1nc(Nc3ccc(N4CCNCC4)cn3)ncc1C2 . Return the value.
Completion: 23 nM
